- System under test: ERα (Homo sapiens (Human))
- Assay text: Degradation of ERα in MCF-7 cells (ELISA)
- Format: cell-based
- Condition details: MCF-7 cells, 16 to 18 h; read-out: EC50 (nM), degradation of ERα
Value kind: DC50 (nM)
Answers are plain numbers, in nM.

Some compounds with known DC50 results, for comparison:
C[C@@H]1Cc2cc3c(cc2[C@@H](c2ccc(NC4CN(CCCF)C4)cc2)N1CC(F)(F)CO)OCO3 [Example 18]; 0.1
[2H]C1([2H])Oc2cc3c(cc2O1)[C@@H](c1ccc(N[C@H]2CCN(CCCF)C2)cc1)N(CC(F)(F)CO)[C@H](C)C3 [Example 19]; 0.13

Consider the following items and state reported DC50 for each.
1. C[C@@H]1Cc2cc3c(cc2[C@@H](c2ncc(N[C@H]4CCN(CCCF)C4)cc2F)N1CC(F)(F)CO)OCO3 [Example 11]
2. C[C@@H]1Cc2cc3c(cc2[C@@H](c2c(F)cc(N[C@H]4CCN(CCCF)C4)cc2F)N1CC(F)(F)CO)OCO3 [Example 5]

**Result**
0.45
0.04

###

- System under test: ERα (Homo sapiens (Human))
- Assay text: Degradation of ERα in MCF-7 cells (ELISA)
- Type: cell-based
- Condition details: MCF7; read-out: Emax degradation (%)
For each record, write down the corresponding Dmax at 3 µM.
Numbers only, in %.

Some compounds with known Dmax at 3 µM results, for comparison:
C[C@@H]1Cc2cc3c(cc2[C@@H](c2ccc(N[C@H]4CCN(CCCF)C4)cn2)N1CC(F)(F)F)OCO3; 104
C[C@@H]1Cc2cc3c(cc2[C@@H](c2c(F)cc(N[C@H]4CCN(CCCF)C4)cc2F)N1CC(F)(F)F)OCO3; 104
[2H]C1([2H])Oc2cc3c(cc2O1)[C@@H](c1ccc(N[C@H]2CCN(CCCF)C2)cn1)N(CC(F)(F)CO)[C@H](C)C3; 101
C[C@@H]1Cc2cc3c(cc2[C@@H](c2ncc(N[C@H]4CCN(CCCF)C4)cc2F)N1CC(F)(F)CO)OCO3; 91
C[C@@H]1Cc2cc3c(cc2[C@@H](c2c(F)cc(O[C@H]4CCN(CCCF)C4)cc2F)N1CC(F)(F)F)OCO3; 95
C[C@@H]1Cc2cc3c(cc2[C@@H](c2c(F)cc(N[C@H]4CCN(CCCF)C4)cc2F)N1CC(F)(F)CO)OCO3; 108

We now examine a further compound.
**Query** Form: Entry = `C[C@@H]1Cc2cc3c(cc2[C@@H](c2ccc(NC4CN(CCCF)C4)cc2)N1CC(F)(F)CO)OCO3` | System = ERα (Homo sapiens (Human)) | Dmax at 3 µM = ____
**Result** 106

###

- System under test: ERα (Homo sapiens (Human), UniProt P03372)
- Sequence (P03372 whole entry): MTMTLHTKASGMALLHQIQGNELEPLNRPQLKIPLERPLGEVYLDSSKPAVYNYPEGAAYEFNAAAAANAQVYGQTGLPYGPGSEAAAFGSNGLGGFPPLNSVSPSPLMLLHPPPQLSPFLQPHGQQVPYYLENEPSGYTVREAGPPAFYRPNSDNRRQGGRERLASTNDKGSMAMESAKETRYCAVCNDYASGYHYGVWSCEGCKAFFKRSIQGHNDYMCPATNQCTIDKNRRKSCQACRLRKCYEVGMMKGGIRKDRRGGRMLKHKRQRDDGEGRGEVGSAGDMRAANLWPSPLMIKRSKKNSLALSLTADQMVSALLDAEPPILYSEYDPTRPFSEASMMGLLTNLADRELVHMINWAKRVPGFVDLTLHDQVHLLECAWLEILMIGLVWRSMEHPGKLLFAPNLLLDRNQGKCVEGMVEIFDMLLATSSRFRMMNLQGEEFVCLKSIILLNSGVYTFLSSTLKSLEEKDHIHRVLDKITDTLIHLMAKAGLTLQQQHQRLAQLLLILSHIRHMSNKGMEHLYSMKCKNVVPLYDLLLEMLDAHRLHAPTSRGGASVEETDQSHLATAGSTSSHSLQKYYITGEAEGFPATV
- Assay text: Degradation of ERα in MCF-7 cells (ELISA)
- Assay type: cell-based
- Condition details: MCF-7 cells, 16 to 18 h; read-out: EC50 (nM), degradation of ERα
Binned DC50; ranges: low class: < 0.2 nM; middle class: ≥ 0.2 nM and < 0.3 nM; high class: ≥ 0.3 nM

See these solved cases before continuing.
C[C@@H]1Cc2ccc3c(=O)[nH][nH]c(=O)c3c2[C@@H](c2ccc(NC3CN(CCCF)C3)cn2)N1CC(F)(F)CO [Example 21, reference compound]; high class
C[C@@H]1Cc2ccc3c(c2[C@@H](c2ccc(NC4CN(CCCF)C4)cn2)N1CC(F)(F)CO)C(=O)NC3=O [Example 20, reference compound]; high class
C[C@@H]1Cc2cc3c(cc2[C@@H](c2ccc(N[C@H]4CCN(CCCF)C4)cc2)N1CC(F)(F)CO)OCO3; low class
[2H]C1([2H])Oc2cc3c(cc2O1)[C@@H](c1ccc(N[C@H]2CCN(CCCF)C2)cn1)N(CC(F)(F)CO)[C@H](C)C3; low class
C[C@@H]1Cc2cc3c(cc2[C@@H](c2ccc(NC4CN(CCCF)C4)cn2)N1CC(F)(F)F)OCO3; high class

**Query** Lab note: sort `C[C@@H]1Cc2cc3c(cc2[C@@H](c2c(F)cc(N[C@H]4CCN(CCCF)C4)cc2F)N1CC(F)(F)F)OCO3` into the matching DC50 band.
**Result** middle class

**Query** Lab note: sort `C[C@@H]1Cc2cc3c(cc2[C@@H](c2ncc(N[C@H]4CCN(CCCF)C4)cc2F)N1CC(F)(F)F)OCO3` into the matching DC50 band.
**Result** high class

**Query** Lab note: sort `C[C@@H]1Cc2cc3c(cc2[C@@H](c2ccc(N[C@H]4CCN(CCCF)C4)cc2)N1CC(F)(F)F)OCO3` into the matching DC50 band.
**Result** high class

**Query** Lab note: sort `C[C@@H]1Cc2cc3c(cc2[C@@H](c2ccc(N[C@H]4CCN(CCCF)C4)cn2)N1CC(F)(F)CO)OCO3` into the matching DC50 band.
**Result** middle class

**Query** Lab note: sort `C[C@@H]1Cc2cc3c(cc2[C@@H](c2ccc(NC4CN(CCCF)C4)cn2)N1CC(F)(F)CO)OCO3` into the matching DC50 band.
**Result** high class

**Query** Lab note: sort `C[C@@H]1Cc2cc3c(cc2[C@@H](c2ccc(N[C@H]4CCN(CCCF)C4)cn2)N1CC(F)(F)F)OCO3` into the matching DC50 band.
**Result** low class

**Query** Lab note: sort `C[C@@H]1Cc2cc3c(cc2[C@@H](c2c(F)cc(O[C@H]4CCN(CCCF)C4)cc2F)N1CC(F)(F)F)OCO3` into the matching DC50 band.
**Result** low class
